src = PubChem BioAssay (EPA / NIEHS)

biological target: Estrogen receptor (Homo sapiens) (UniProt P03372); test: ATG_ERa_TRANS: Attagene TRANS-FACTORIAL HepG2 Assay for human Estrogen Receptor alpha (ERa) (AID 2282970); settings: HepG2 Attagene TRANS ERa GAL4 reporter, mRNA
Sequence (P03372 whole entry, looked up, the tested form may be a part): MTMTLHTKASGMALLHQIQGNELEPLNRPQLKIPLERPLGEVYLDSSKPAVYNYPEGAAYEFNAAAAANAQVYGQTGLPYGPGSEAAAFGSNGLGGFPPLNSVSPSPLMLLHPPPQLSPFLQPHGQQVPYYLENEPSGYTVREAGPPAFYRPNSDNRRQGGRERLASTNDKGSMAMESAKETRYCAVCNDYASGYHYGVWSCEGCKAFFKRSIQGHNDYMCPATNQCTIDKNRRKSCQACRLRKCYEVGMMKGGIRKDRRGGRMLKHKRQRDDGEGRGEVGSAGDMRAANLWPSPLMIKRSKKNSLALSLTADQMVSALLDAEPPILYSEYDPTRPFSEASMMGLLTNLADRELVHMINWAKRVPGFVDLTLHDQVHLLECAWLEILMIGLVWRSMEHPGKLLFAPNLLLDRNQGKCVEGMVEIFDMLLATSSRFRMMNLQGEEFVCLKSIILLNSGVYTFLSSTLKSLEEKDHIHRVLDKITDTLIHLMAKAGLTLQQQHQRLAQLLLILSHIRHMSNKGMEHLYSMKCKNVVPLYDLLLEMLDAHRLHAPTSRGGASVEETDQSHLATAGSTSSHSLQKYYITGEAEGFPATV
Inconclusive results are not listed. Active and inactive are the calls of the source. How the source made its calls: active means hit-call score of the fitted dose curve at least 0.9, where 1 is the maximum; inconclusive means response in the unintended direction; inactive means score below 0.9.
Possible outcomes: Y = active, N = inactive

- CC(C)C(=O)Nc1ccc([N+](=O)[O-])c(C(F)(F)F)c1: N
- O=C1CN(N=Cc2ccc([N+](=O)[O-])o2)C(=O)N1: Y
- C=CCc1cc(S(=O)(=O)c2ccc(O)c(CC=C)c2)ccc1O: Y

###

Documented AC50 across a set of molecules
target: rat Opioid Receptor, Non-selective Sodium (Na+) Binding, Oprm1 (gene 25601); test: NVS_GPCR_rOpiate_NonSelectiveNa: NovaScreen (NVS) G Protein-Coupled Receptor Assay for rat Opioid Receptor, Non-selective Sodium (Na+) Binding (AID 2283311)
Results filed as inconclusive are left out. Calls of active or inactive are those of the source. How the source made its calls: active means hit-call score of the fitted dose curve at least 0.9, where 1 is the maximum; inconclusive means response in the unintended direction; inactive means score below 0.9.
parameter: AC50

* c1ccc(C(O[C@@H]2CCCN(CCc3ccc4c(c3)OCO4)C2)c2ccccc2)cc1 | 6.18 µM (active)
* COc1cc(C(C)C)c2c(c1)S(=O)(=O)N(COc1cc(=O)n3cccc(OCCN4CCCCC4)c3n1)C2=O | 8.62 µM (active)
* C=CCc1cc(S(=O)(=O)c2ccc(O)c(CC=C)c2)ccc1O | 16.1 µM (active)

###

Read-out: Human Leukocyte Antigen - DR isotype (HLADR), HLA-DRA (gene 3122)
Experiment: BSK_BE3C_HLADR: BioMAP Diversity Plus: BE3C Assay for Human Leukocyte Antigen - DR isotype (HLADR) Biomarker Activity (AID 2283032)
Conditions: primary human bronchial epithelial cells; actives raise or lower the signal
Procedure: BSK_BE3C is a cell-based, multiplexed-readout assay that uses bronchial epithelial cell, a human lung primary cell, with measurements taken at 24 hours after chemical dosing in a 96-well plate.BSK_BE3C_HLADR is an assay component measured in the BSK_BE3C assay. It measures HLA-DR antibody related to regulation of gene expression using ELISA technology.Data from the assay component BSK_BE3C_HLADR was analyzed into 1 assay endpoint. […]
Active and inactive are the calls of the source. How the source made its calls: active means hit-call score of the fitted dose curve at least 0.9, where 1 is the maximum; inactive means score below 0.9.
Possible outcomes: active, inactive

• C=CCc1cc(S(=O)(=O)c2ccc(O)c(CC=C)c2)ccc1O = active
• CCCC(CCC)C(=O)O = inactive
• OC[C@H]1O[C@@](CO)(O[C@H]2O[C@H](CO)[C@@H](O)[C@H](O)[C@H]2O)[C@@H](O)[C@@H]1O = inactive
• FC(F)=C(F)C(F)(F)C(F)(F)C(F)(F)C(F)(F)C(F)(F)C(F)(F)F = inactive
• CCN(CC)C(=S)SSC(=S)N(CC)CC = active
• c1ccc2cc3ccccc3cc2c1 = inactive
• OCCC(F)(F)C(F)(F)C(F)(F)C(F)(F)F = inactive
• CC(C)CC(C)O (stereo unspecified) = inactive
• Nc1ccn([C@@H]2O[C@H](CO)[C@@H](O)[C@@H]2O)c(=O)n1 = inactive
• CNC(C)=O = inactive
• NC(=O)N1c2ccccc2C=Cc2ccccc21 = inactive
• O=S(=O)(O)CCC(F)(F)C(F)(F)C(F)(F)C(F)(F)C(F)(F)C(F)(F)F = inactive
• NC(N)=O = inactive
• COS(C)(=O)=O = inactive
• CC(=O)c1ccccc1 = inactive
• CCCCCOC(C)=O = inactive
• NNC(=O)c1ccncc1 = inactive
• CCCOc1ccc(S(=O)(=O)N2CCN(CC)CC2)cc1-c1nc2c(CC)n(Cc3ccccn3)nc2c(=O)[nH]1 = inactive
• O=C(NO)C1(NS(=O)(=O)c2ccc(Oc3ccc(F)cc3)cc2)CCOCC1 = inactive
• O=S1(=O)CCCO1 = inactive
• CCCCCCCCCC = inactive
• CCCCCCCC1CCC(=O)O1 (stereo unspecified) = inactive
• Cc1ccc(S(=O)(=O)NC(=O)NN2CCCCCC2)cc1 = inactive
• FC(F)(F)C(F)(F)C(F)(F)C(F)(F)C(F)(F)C(F)(F)I = inactive
• COc1cc(C(C)C)c2c(c1)S(=O)(=O)N(COc1cc(=O)n3cccc(OCCN4CCCCC4)c3n1)C2=O = active
• CCCCCCCCCCCCCCCCOS(=O)(=O)O = active

###

read-out: Tumor necrosis factor (Homo sapiens) (UniProt P01375); experiment: BSK_LPS_TNFa: BioMAP Diversity Plus: LPS Assay for Tumour Necrosis Factor alpha (TNFa) Biomarker Activity (AID 2283085); details: primary human HUVEC with PBMC; actives raise or lower the signal
Sequence (P01375 whole entry, looked up): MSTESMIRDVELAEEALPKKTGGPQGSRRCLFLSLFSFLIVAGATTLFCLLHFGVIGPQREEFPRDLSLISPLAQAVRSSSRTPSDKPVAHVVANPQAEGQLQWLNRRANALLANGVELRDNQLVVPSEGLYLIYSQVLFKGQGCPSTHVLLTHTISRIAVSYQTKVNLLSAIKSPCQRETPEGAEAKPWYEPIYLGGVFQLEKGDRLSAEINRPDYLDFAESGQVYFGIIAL
The source made the active and inactive calls. Rule for the calls: active = hit-call score of the fitted dose curve at least 0.9, where 1 is the maximum; inactive = score below 0.9.
Possible outcomes: active, inactive

• NC(=O)N1c2ccccc2C=Cc2ccccc21 = inactive
• NNC(=O)c1ccncc1 = inactive
• CCCCC(CC)C(=O)OCCOCCOCCOC(=O)C(CC)CCCC (centres undefined) = inactive
• FC(F)(F)C(F)(F)C(F)(F)C(F)(F)C(F)(F)C(F)(F)I = inactive
• O=C(NO)C1(NS(=O)(=O)c2ccc(Oc3ccc(F)cc3)cc2)CCOCC1 = active
• c1ccc(C(O[C@@H]2CCCN(CCc3ccc4c(c3)OCO4)C2)c2ccccc2)cc1 = inactive
• FC(F)(F)COC(OCC(F)(F)F)OCC(F)(F)F = inactive
• C[C@]12C=CC(=O)C=C1CC[C@H]1[C@@H]3C[C@@H](O)[C@](O)(C(=O)CO)[C@@]3(C)C[C@H](O)[C@@]12F = active
• OCCC(F)(F)C(F)(F)C(F)(F)C(F)(F)F = inactive
• CCCOc1ccc(S(=O)(=O)N2CCN(CC)CC2)cc1-c1nc2c(CC)n(Cc3ccccn3)nc2c(=O)[nH]1 = active
• COc1cc2c(c(OC)c1OC)-c1ccc(OC)c(=O)cc1[C@@H](NC(C)=O)CC2 = active
• CCCCCOC(C)=O = active
• NCC(F)(F)C(F)(F)C(F)(F)C(F)(F)F = inactive
• O=C(O)c1cccc(C(=O)O)c1 = inactive

###

experiment: ATG_ISRE_CIS: Attagene CIS-FACTORIAL HepG2 Assay for human Interferon Regulatory Factor 1 (IRF1) binding to an Interferon-Stimulated Response Element (ISRE) (AID 2282948); details: HepG2 ISRE cis-reporter (Attagene), mRNA transcription readout; actives raise or lower the signal
The source made the active and inactive calls. The calls were made as follows: active = hit-call score of the fitted dose curve at least 0.9, where 1 is the maximum; inactive = score below 0.9.
Possible outcomes: 1.0 for active, 0.0 for inactive

* COS(C)(=O)=O | 0.0
* NC(=O)N1c2ccccc2C=Cc2ccccc21 | 0.0
* CCCOc1ccc(S(=O)(=O)N2CCN(CC)CC2)cc1-c1nc2c(CC)n(Cc3ccccn3)nc2c(=O)[nH]1 | 1.0
* CCCc1ccccc1 | 0.0
* CCCCCCCC/C=C\CCCCCCCC(=O)OC[C@@H](O)[C@H]1OC[C@H](O)[C@H]1O | 0.0
* C[C@]12C=CC(=O)C=C1CC[C@H]1[C@@H]3C[C@@H](O)[C@](O)(C(=O)CO)[C@@]3(C)C[C@H](O)[C@@]12F | 0.0

###

molecular target: Nuclear respiratory factor 1 (Homo sapiens) (UniProt Q16656); experiment: ATG_NRF1_CIS: Attagene CIS-FACTORIAL HepG2 Assay for human Nuclear Respiratory Factor 1 (NRF1) Orphan Gene (AID 2282987); details: HepG2 NRF1 cis-element reporter, Attagene multiplex; actives raise or lower the signal
Sequence (Q16656 whole entry, looked up): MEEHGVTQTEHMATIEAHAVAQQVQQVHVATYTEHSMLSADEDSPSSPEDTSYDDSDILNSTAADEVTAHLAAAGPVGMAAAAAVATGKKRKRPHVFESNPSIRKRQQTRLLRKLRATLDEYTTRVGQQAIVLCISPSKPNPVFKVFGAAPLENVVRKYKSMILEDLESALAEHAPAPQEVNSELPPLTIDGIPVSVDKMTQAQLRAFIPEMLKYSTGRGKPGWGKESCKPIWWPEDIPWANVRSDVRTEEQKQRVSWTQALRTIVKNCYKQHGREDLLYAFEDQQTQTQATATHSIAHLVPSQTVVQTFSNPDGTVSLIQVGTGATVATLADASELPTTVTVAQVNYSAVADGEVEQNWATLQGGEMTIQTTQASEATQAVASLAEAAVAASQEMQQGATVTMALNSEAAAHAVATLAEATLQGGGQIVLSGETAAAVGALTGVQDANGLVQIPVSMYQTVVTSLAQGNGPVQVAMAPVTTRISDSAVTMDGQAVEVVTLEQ
Active and inactive are the calls of the source. The calls were made as follows: active = hit-call score of the fitted dose curve at least 0.9, where 1 is the maximum; inactive = score below 0.9.
Possible outcomes: active, inactive

* O=c1[nH]cnc2c1ncn2[C@H]1CC[C@@H](CO)O1 | inactive
* c1ccc(C(O[C@@H]2CCCN(CCc3ccc4c(c3)OCO4)C2)c2ccccc2)cc1 | inactive
* OCCNCCO | inactive
* Cc1cccc(O)c1C | inactive
* COS(C)(=O)=O | inactive
* NC(=O)N(O)[C@@H]1COc2cc(OCc3ccccc3)ccc21 | inactive
* CC(C)CCCCCCOC(=O)C1CCCCC1C(=O)OCCCCCCC(C)C (stereo not given) | inactive
* NC(=O)NN=Cc1ccc([N+](=O)[O-])o1 | inactive
* CCCCCCCCCCCCCCCCOS(=O)(=O)O | inactive
* c1ccc2ncccc2c1 | inactive
* Nc1ccn([C@@H]2O[C@H](CO)[C@@H](O)[C@@H]2O)c(=O)n1 | inactive
* OC[C@H]1O[C@@H]2O[C@H]3[C@H](O)[C@@H](O)[C@@H](O[C@H]4[C@H](O)[C@@H](O)[C@@H](O[C@H]5[C@H](O)[C@@H](O)[C@@H](O[C@H]6[C@H](O)[C@@H](O)[C@@H](O[C@H]7[C@H](O)[C@@H](O)[C@@H](O[C@H]1[C@H](O)[C@H]2O)O[C@@H]7CO)O[C@@H]6CO)O[C@@H]5CO)O[C@@H]4CO)O[C@@H]3CO | inactive
* CC(C)CC(C)O (stereo not given) | inactive
* c1ccc2c(c1)-c1cccc3c1c-2cc1ccccc13 | inactive
* CCn1nc(C)c2c1C(=O)NCC(c1ccc(O)cc1)=N2 | inactive
* NC(=O)N1c2ccccc2C=Cc2ccccc21 | inactive
* CNC(C)=O | inactive
* FC(F)C(F)(F)COCC1CO1 (stereo not given) | inactive
* S=P(N1CC1)(N1CC1)N1CC1 | inactive
* Cc1nc(-c2ccccn2)ncc1C(=O)Nn1cc(C)c2cc(F)ccc21 | inactive
* CCN(CC)C(=S)SSC(=S)N(CC)CC | active
* CC[C@H](C)C(=O)O[C@H]1C[C@H](O)C=C2C=C[C@H](C)[C@H](CC[C@@H](O)C[C@@H](O)CC(=O)O)[C@H]21 | inactive
* NC(N)=O | inactive
* CCCCCOC(C)=O | inactive
* OC(Cn1cncn1)(Cn1cncn1)c1ccc(F)cc1F | inactive
